List of activity change, negative = inhibition values.
# testProtocol: NFAT Signaling Pathway (AID 444);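 also: carbachol stimulus at about its EC50 of 1 µM final; % is scaled to controls: 0 for no effect and ±100 for the full control effect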
# experimentalConditions: Jurkat NFAT-bla M1, carbachol, beta-lactamase ratio, 5 h; at 17.2 µM (top of the series) unless noted
Records with an inconclusive call do not appear.

[
  {
    "compound": "COc1ccc(-n2ncc3c(Nc4cccc(C)c4)ncnc32)cc1",
    "activity change, negative = inhibition [%]": -11.9
  },
  {
    "compound": "CCn1nnc(C(=O)O)c1C(=O)O",
    "activity change, negative = inhibition [%]": 3.87
  },
  {
    "compound": "CN1C(=O)CC(N2CCN(c3ccc(Cl)c(Cl)c3)CC2)C1=O (stereo not drawn)",
    "activity change, negative = inhibition [%]": 16.8
  },
  {
    "compound": "COc1ccc2c(c1)nc(N)n2Cc1ccccc1",
    "activity change, negative = inhibition [%]": -9.42
  },
  {
    "compound": "C=C(c1ccc(OCCO)cc1)c1ccc(OCCO)cc1",
    "activity change, negative = inhibition [%]": -1.3
  },
  {
    "compound": "CCCCOc1ccc(C(=O)NCC(=O)NCC(=O)OCC)cc1",
    "activity change, negative = inhibition [%]": -7.6
  },
  {
    "compound": "Cc1c(C)n(C(=O)CSc2nccn2C)c2ccccc12",
    "activity change, negative = inhibition [%]": -0.559
  },
  {
    "compound": "CN(C)c1nc2n(c(=S)n1)CCS2",
    "activity change, negative = inhibition [%]": 3.88
  },
  {
    "compound": "COc1ccc(C2CC(c3ccccc3)Nc3nc(N)nn32)cc1 (stereo not drawn)",
    "activity change, negative = inhibition [%]": -6.69
  },
  {
    "compound": "CC(NC(=O)NCCCC(=O)O)(C(F)(F)F)C(F)(F)F",
    "activity change, negative = inhibition [%]": -1.55
  },
  {
    "compound": "c1csc(Cc2nn3c(-c4ccncc4)nnc3s2)c1",
    "activity change, negative = inhibition [%]": 5.73
  },
  {
    "compound": "CS(=O)(=O)CCC(C(=O)n1nnc2ccccc21)N1C(=O)c2ccccc2C1=O (stereo not drawn)",
    "activity change, negative = inhibition [%]": -13.1
  },
  {
    "compound": "CCOC(=O)C(C(=O)OCC)N(C#N)c1nc(SC)nc(N(C)C)n1",
    "activity change, negative = inhibition [%]": -23.5
  },
  {
    "compound": "Cc1ccc(C)c(OCc2nnc(NC(=O)c3ccco3)s2)c1",
    "activity change, negative = inhibition [%]": 9.32
  },
  {
    "compound": "CCCc1nnc(NC(=O)Nc2ccccc2OC)s1",
    "activity change, negative = inhibition [%]": 25
  },
  {
    "compound": "CC1(C)Nc2ccc(O)cc2-c2c1ssc2=S",
    "activity change, negative = inhibition [%]": 19.6
  },
  {
    "compound": "O=C(NCC(F)(F)F)Nc1nnc(C(F)(F)F)s1",
    "activity change, negative = inhibition [%]": -2.8
  },
  {
    "compound": "CCN(CC)CCCN1C(=O)C(O)=C(C(=O)c2ccc(C)o2)C1c1ccc(C)o1 (stereo not drawn)",
    "activity change, negative = inhibition [%]": -12.9
  },
  {
    "compound": "Nc1ccc2cn[nH]c2c1",
    "activity change, negative = inhibition [%]": 2.08
  },
  {
    "compound": "CC(C)(C)C1=Nn2c(nnc2-c2ccco2)SC1",
    "activity change, negative = inhibition [%]": 11.1
  },
  {
    "compound": "NC(=O)C1CCN(CCC(=O)Nc2ccc(Br)cc2)CC1",
    "activity change, negative = inhibition [%]": -28.6
  },
  {
    "compound": "O=C(O)C1CSCN1S(=O)(=O)c1cccc2nsnc12 (stereo not drawn)",
    "activity change, negative = inhibition [%]": 4.31
  },
  {
    "compound": "O=C(/C=C/c1ccccc1)c1ccccc1",
    "activity change, negative = inhibition [%]": -14.4
  },
  {
    "compound": "Cc1nc(SCC(=O)Nc2ccc3c(c2)OCO3)c(C#N)c2c1CCCC2",
    "activity change, negative = inhibition [%]": -1.28
  },
  {
    "compound": "N#CC1=C(SCC(=O)c2ccc(Cl)cc2)NC2=C(C(=O)CCC2)C1c1ccco1 (stereo not drawn)",
    "activity change, negative = inhibition [%]": -22.4
  },
  {
    "compound": "Cc1nc(-c2c(-c3ccc(O)cc3O)noc2C(F)(F)F)cs1",
    "activity change, negative = inhibition [%]": -22
  },
  {
    "compound": "Cc1cccc(N(CC(O)CN(C)C)S(=O)(=O)c2ccccc2)c1 (stereo not drawn)",
    "activity change, negative = inhibition [%]": -3.01
  },
  {
    "compound": "Cc1cc(CC(=O)O)c(C)cc1CC(=O)O",
    "activity change, negative = inhibition [%]": 2.75
  },
  {
    "compound": "COc1ccccc1C1/C(=C(/O)c2cnn(-c3ccccc3)c2C)C(=O)C(=O)N1CCN(C)C (stereo not drawn)",
    "activity change, negative = inhibition [%]": 1.4
  },
  {
    "compound": "Cc1ccc(-n2c(SCC(=O)NCc3ccco3)nc3nc4c(cc3c2=O)COC(C)(C)C4)cc1",
    "activity change, negative = inhibition [%]": -16.8
  },
  {
    "compound": "CCOC(=O)C1CCN(c2ncnc3c2cnn3-c2ccc(OC)cc2)CC1",
    "activity change, negative = inhibition [%]": -5.45
  },
  {
    "compound": "Cn1c(NCCN2CCCCC2)cc(=O)n(C)c1=O",
    "activity change, negative = inhibition [%]": -24.7
  },
  {
    "compound": "Nc1nonc1-c1noc(-c2ccccc2)n1",
    "activity change, negative = inhibition [%]": -13.1
  }
]
